test system: HIV; test: MT4 assay: antiviral HIV activity (cell protection, cell titer glo readout at 96 hours); format: cell-based; conditions: Human immunodeficiency virus 1, MT4, 96 h, MT4 cells, cell titer glo readout at 96 hours, 10 point dose response; read-out: HIV MT4 Assay IC50
pIC50: −log10 of the molar value.
pIC50 values, listed per item
Assay Endpoint: pIC50

{"Compound": "Cc1nc2c(cc(C(=O)NCc3cccc(F)c3)n2C)c(-c2cc(F)c3c(c2C)CCCO3)c1[C@H](OC(C)(C)C)C(=O)O", "Measured On": "HIV", "Recorded Number": 8.32}
{"Compound": "CCN(CC)C1C[C@H]2CC[C@@H](C1)N2c1cc(-c2cc3c(-c4cc(F)c5c(c4C)CCCO5)c([C@H](OC(C)(C)C)C(=O)O)c(C)nc3n2C)ccn1 (stereo partly drawn)", "Measured On": "HIV", "Recorded Number": 7.35}
{"Compound": "Cc1nc2c(cc(-c3nnc(-c4ccc5c(cnn5C)c4)s3)n2C)c(-c2cc(F)c3c(c2C)CCCO3)c1[C@H](OC(C)(C)C)C(=O)O (atropisomer, axis not shown; (M))", "Measured On": "HIV", "Recorded Number": 8.01}
{"Compound": "Cc1nc2c(cc(-c3nc(N4CCC(N5CCCCC5)CC4)ns3)n2C)c(-c2cc(F)c3c(c2C)CCCO3)c1[C@H](OC(C)(C)C)C(=O)O", "Measured On": "HIV", "Recorded Number": 8.16}
{"Compound": "Cc1ccc(-c2c([C@H](OC(C)(C)C)C(=O)O)c(C)nc3c2cc(-c2ccnc(N4CCCN(C5COC5)CC4)c2)n3C)cc1", "Measured On": "HIV", "Recorded Number": 6.70}
{"Compound": "Cc1nc2c(cc(C(=O)NC(C)(C)c3ccccc3)n2C)c(-c2cc(F)c3c(c2C)CCCO3)c1[C@H](OC(C)(C)C)C(=O)O", "Measured On": "HIV", "Recorded Number": 7.59}
{"Compound": "Cc1nc2c(cc(-c3nnc(N4CCC4)o3)n2C)c(-c2cc(F)c3c(c2C)CCCO3)c1[C@H](OC(C)(C)C)C(=O)O", "Measured On": "HIV", "Recorded Number": 7.87}
{"Compound": "Cc1nc2c(cc(C(=O)N3CC4CN(C5COC5)CC4C3)n2C)c(-c2cc(F)c3c(c2C)CCCO3)c1[C@H](OC(C)(C)C)C(=O)O (stereo partly drawn)", "Measured On": "HIV", "Recorded Number": 5.92}
{"Compound": "Cc1nc2c(cc(-c3nnc(N4CCN(S(=O)(=O)N5CCCCC5)CC4)o3)n2C)c(-c2cc(F)c3c(c2C)CCCO3)c1[C@H](OC(C)(C)C)C(=O)O", "Measured On": "HIV", "Recorded Number": 8.31}
{"Compound": "Cc1nc2c(cc(-c3nc(N4CCC(C)CC4)ns3)n2C)c(-c2cc(F)c3c(c2C)CCCO3)c1[C@H](OC(C)(C)C)C(=O)O", "Measured On": "HIV", "Recorded Number": 7.44}
{"Compound": "Cc1nc2c(cc(/C=C/C(=O)NCCN3CCCC3=O)n2C)c(-c2cc(F)c3c(c2C)CCCO3)c1[C@H](OC(C)(C)C)C(=O)O", "Measured On": "HIV", "Recorded Number": 5.49}
{"Compound": "Cc1nc2c(cc(-c3nnc(N4CCC(n5cccn5)CC4)o3)n2C)c(-c2cc(F)c3c(c2C)CCCO3)c1[C@H](OC(C)(C)C)C(=O)O", "Measured On": "HIV", "Recorded Number": 8.03}
